Reference source: the supplement of paper PMC8866396

system: IL-6-GFP PC-9GR; experiment: cell viability (CCK-8 OD) relative to DMSO control (fraction of control); higher = more viable cells; conditions: compound concentration: 10 uM; treatment time: 48 h
Catalogue of cell viability readings, one per entry.
# answer = number (no unit)

Example entries and their recorded answers appear below.
Compound: C=C1CCC2C(C)(CO)C(O)CCC2(C)C1C/C=C1\C=COC1=O (stereo unspecified) [Dehydroandrographolide]
Measurement Target: IL-6-GFP PC-9GR
cell viability: 1.17

Compound: COC1CC2CCC(C)C(O)(O2)C(=O)C(=O)N2CCCCC2C(=O)OC(C(C)CC2CCC(OC(=O)C(C)(CO)CO)C(OC)C2)CC(=O)C(C)/C=C(\C)C(O)C(OC)C(=O)C(C)CC(C)/C=C/C=C/C=C/1C (stereo unspecified)
Measurement Target: IL-6-GFP PC-9GR
cell viability: 0.524

Compound: COc1ccnc(CS(=O)c2nc3ccc(-n4cccc4)cc3[nH]2)c1C (stereo unspecified) [Ilaprazole]
Measurement Target: IL-6-GFP PC-9GR
cell viability: 1.17

Compound: O=C1OC(OC(=O)c2cccnc2Nc2cccc(C(F)(F)F)c2)c2ccccc21 (stereo unspecified) [Talniflumate]
Measurement Target: IL-6-GFP PC-9GR
cell viability: 1

Compound: Cc1ccc(=O)n(-c2ccccc2)c1 [Pirfenidone]
Measurement Target: IL-6-GFP PC-9GR
cell viability: 1.24

Lab note: measured cell viability of CC(=O)OCC1OC(n2ccc(=O)[nH]c2=O)C(OC(C)=O)C1OC(C)=O (stereo unspecified) [uridine triacetate] was 1.59

cell viability reading for COc1c2occc2c(OC)c2c(=O)cc(C)oc12 [Khellin] : 0.831

Lab note: measured cell viability of `COc1cc(N2CCC(N3CCN(C)CC3)CC2)ccc1Nc1ncc(Cl)c(Nc2ccccc2P(C)(C)=O)n1` was 0.688

The measured cell viability associated with FC(F)(F)c1ccc(CNc2ccc(Cc3c[nH]c4ncc(Cl)cc34)cn2)cn1 [Pexidartinib (PLX3397)] reads 0.789

So for CC(=O)OC1CCC2(C)C(=CCC3C2CCC2(C)C(c4cccnc4)=CCC32)C1 (stereo unspecified) [Abiraterone Acetate] , the logged cell viability turned out to be 1.48

// cell viability value for CN1C2=CC(=O)/C(=N\NC(N)=O)C=C2CC1S(=O)(=O)[O-].[Na+] (stereo unspecified) [Carbazochrome sodium sulfonate (AC-17)] : 1.16

For COc1cc2nccc(Oc3ccc(NC(=O)Nc4cc(C)on4)c(Cl)c3)c2cc1OC [Tivozanib (AV-951)] the compound record lists cell viability as 0.792
